- targetUnderTest: human SGLT1 (Homo sapiens, UniProt P13866)
- Construct: expressed in transfected cells; host or cells: CHO-K1
- Sequence (P13866 1-664): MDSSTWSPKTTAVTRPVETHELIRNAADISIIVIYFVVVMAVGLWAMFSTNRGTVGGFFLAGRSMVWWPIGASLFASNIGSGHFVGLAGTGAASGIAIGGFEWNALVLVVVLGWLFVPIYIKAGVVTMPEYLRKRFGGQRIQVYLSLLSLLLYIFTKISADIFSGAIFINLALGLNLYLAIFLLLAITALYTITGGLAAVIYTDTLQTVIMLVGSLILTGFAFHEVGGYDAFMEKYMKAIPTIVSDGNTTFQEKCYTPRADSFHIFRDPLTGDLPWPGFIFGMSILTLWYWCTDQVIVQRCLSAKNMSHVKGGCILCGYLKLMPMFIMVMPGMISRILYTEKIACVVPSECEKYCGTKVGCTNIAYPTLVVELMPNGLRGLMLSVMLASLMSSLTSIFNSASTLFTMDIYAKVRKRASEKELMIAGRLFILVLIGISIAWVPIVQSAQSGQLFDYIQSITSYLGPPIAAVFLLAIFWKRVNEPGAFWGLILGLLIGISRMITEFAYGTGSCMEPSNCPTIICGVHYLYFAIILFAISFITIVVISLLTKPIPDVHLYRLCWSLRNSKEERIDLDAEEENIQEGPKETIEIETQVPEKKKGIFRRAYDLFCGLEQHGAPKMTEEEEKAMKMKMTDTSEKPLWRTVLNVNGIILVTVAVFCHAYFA
- protocolDetails: Cell-based assay for sodium-dependent glucose transport (14C-AMG uptake), CHO-K1 cells stably expressing human SGLT1
- particulars: Na-dependent 14C-AMG uptake
metricName: CHOK-SGLT1 IC50 (uM)

CCc1ccc(Cc2c[nH]c3cccc([C@@H]4O[C@H](CO)[C@@H](O)[C@H](O)[C@H]4O)c23)cc1; inactive
CCc1ccc(Cc2c[nH]c3ccc([C@@H]4O[C@H](CO)[C@@H](O)[C@H](O)[C@H]4O)cc23)cc1; inactive
COc1ccc(CCc2c[nH]c3ccc([C@@H]4O[C@H](CO)[C@@H](O)[C@H](O)[C@H]4O)cc23)cc1; inactive
COc1ccc(Cc2c[nH]c3ccc([C@@H]4O[C@H](CO)[C@@H](O)[C@H](O)[C@H]4O)cc23)cc1; inactive

Hey, just so you know, these numbers are from patent US7816328B2.
